Measured IC50 accompanies every entry in the list below.
- Tested On: ROCK2 (human) (UniProt O75116)
- Sequence (O75116 whole entry, looked up): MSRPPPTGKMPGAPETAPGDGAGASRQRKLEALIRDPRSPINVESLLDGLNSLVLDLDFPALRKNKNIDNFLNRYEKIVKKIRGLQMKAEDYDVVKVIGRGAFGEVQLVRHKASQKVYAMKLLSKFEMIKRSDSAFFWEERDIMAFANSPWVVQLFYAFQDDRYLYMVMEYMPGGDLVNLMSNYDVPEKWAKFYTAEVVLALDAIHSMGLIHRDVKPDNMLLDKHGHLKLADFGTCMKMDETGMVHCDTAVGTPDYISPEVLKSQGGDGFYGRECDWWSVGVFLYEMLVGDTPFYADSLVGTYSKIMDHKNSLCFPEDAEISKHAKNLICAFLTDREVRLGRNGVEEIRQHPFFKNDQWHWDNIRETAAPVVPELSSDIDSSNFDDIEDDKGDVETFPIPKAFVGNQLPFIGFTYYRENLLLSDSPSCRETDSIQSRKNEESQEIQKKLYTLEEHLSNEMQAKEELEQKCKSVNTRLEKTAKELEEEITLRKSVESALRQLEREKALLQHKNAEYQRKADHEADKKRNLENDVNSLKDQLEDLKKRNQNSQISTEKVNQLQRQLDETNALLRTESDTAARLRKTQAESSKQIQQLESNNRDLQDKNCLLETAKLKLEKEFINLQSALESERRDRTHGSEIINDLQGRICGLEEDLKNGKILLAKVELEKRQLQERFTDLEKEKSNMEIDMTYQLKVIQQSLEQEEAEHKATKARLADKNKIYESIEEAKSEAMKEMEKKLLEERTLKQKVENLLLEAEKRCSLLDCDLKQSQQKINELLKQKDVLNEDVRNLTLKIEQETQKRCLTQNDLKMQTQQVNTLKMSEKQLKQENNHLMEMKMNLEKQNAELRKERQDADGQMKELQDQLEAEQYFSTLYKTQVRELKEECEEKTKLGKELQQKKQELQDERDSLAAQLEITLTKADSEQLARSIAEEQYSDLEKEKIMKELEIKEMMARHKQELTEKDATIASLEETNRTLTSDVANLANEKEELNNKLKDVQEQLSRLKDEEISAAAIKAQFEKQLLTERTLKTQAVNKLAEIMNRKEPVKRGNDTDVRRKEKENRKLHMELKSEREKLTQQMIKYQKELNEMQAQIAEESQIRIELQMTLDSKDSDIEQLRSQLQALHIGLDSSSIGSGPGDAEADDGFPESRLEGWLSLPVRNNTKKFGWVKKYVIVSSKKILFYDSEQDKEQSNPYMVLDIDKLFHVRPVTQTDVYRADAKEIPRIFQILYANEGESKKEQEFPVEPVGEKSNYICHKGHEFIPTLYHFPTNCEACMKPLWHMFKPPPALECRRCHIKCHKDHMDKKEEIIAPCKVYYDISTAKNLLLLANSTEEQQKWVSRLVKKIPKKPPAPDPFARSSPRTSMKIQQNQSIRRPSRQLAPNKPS

{"Compound": "CC[C@]1(C(C)N)CC[C@@H](Oc2c(F)cc3cnccc3c2C)CC1 (stereo not given in full)", "Recorded Result": "100 to 1000 nM"}
{"Compound": "CCC(N)[C@]1(CC)CC[C@H](Oc2c(C)cc3cnccc3c2C)CC1 (stereo not given in full)", "Recorded Result": "100 to 1000 nM"}
{"Compound": "CCC(N)[C@]1(CC)CC[C@H](Oc2cc3ccncc3cc2C)CC1 (stereo not given in full)", "Recorded Result": "100 to 1000 nM"}

## Input Which IC50 value belongs to CCC(N)[C@]1(CC)CC[C@H](Oc2c(C)cc3c(=O)[nH]ccc3c2C)CC1 (stereo not given in full) ?
## Output 100 to 1000 nM

## Input Which IC50 value belongs to CC(C)C1(C(N)c2nccs2)CCC(Oc2cc3cc[nH]c(=O)c3cc2Cl)CC1 (stereo not given) ?
## Output 100 to 1000 nM

## Input Which IC50 value belongs to CCC(N)[C@]1(C2CCS(=O)(=O)CC2)CC[C@H](Oc2cc3cc[nH]c(=O)c3cc2Cl)CC1 (stereo not given in full) ?
## Output ≤ 10 nM

## Input Which IC50 value belongs to CC[C@]1(C(N)C2CC2)CC[C@@H](Oc2cc3cc[nH]c(=O)c3cc2Cl)CC1 (stereo not given in full) ?
## Output ≤ 10 nM

## Input Which IC50 value belongs to CCC(N)[C@]1(CC)CC[C@H](Oc2c(F)cc3cnccc3c2C)CC1 (stereo not given in full) ?
## Output 100 to 1000 nM

## Input Which IC50 value belongs to CCC(N)[C@]1(C)CC[C@H](Oc2cc3cc[nH]c(=O)c3cc2Cl)CC1 (stereo not given in full) ?
## Output ≤ 10 nM

## Input Which IC50 value belongs to CC(N)C1(C2CCC2)CCC(Oc2cc3cc[nH]c(=O)c3cc2Cl)CC1 (stereo not given) ?
## Output 10 to 100 nM
